tested on: PC3 prostate cancer cell; assay: MTT cell viability assay, PC3 prostate cancer cell; assay type: cell-based; conditions: PC-3, treated 48 hours; read-out: IC50 48 hours
pIC50: −log10 of the molar value.
Quick rule for you: pIC50 at 5 or higher means Condition met, lower means Condition not met.

Please review the following examples before continuing.
# MOLECULE, ASSIGNED LABEL
records = [
    ("COc1ccc(/C=C/C(=O)C(CO)(CO)C(=O)/C=C/c2ccc(OC)c(OC)c2)cc1OC [Compound 42]", "Condition not met"),
    ("COc1cc(/C=C/C(O)=C/C(=O)/C=C/c2ccc(OC(=O)C(C)(CO)CO)c(OC)c2)ccc1O [Compound 21b]", "Condition not met"),
    ("COc1ccc(/C=C/C(=O)CC(=O)/C=C/c2ccc(OC)c(OC(=O)C(C)(CO)CO)c2)cc1O [Compound 24b]", "Condition met"),
    ("COc1cc(/C=C/C(=O)CC(=O)/C=C/c2ccc(OC(=O)C(CO)(CO)COC(=O)C(CO)(CO)CO)c(OC)c2)ccc1O [Compound 38b]", "Condition not met"),
    ("CCC(CO)(CO)C(=O)Oc1ccc(/C=C/C(=O)CC(=O)/C=C/c2ccc(OC(=O)C(CC)(CO)CO)c(OC(F)(F)F)c2)cc1OC(F)(F)F [Compound 29]", "Condition not met"),
    ("C=CCC(CC=C)(C(=O)/C=C/c1ccc(OC(=O)C(C)(CO)CO)c(OC)c1)C(=O)/C=C/c1ccc(OC(=O)C(C)(CO)CO)c(OC)c1 [Compound 35e]", "Condition met"),
    ("COc1cc(/C=C/C(=O)CC(=O)/C=C/c2ccc(OC(=O)C(CO)(CO)CO)c(OC)c2)ccc1O [Compound 38a]", "Condition not met"),
    ("CCC(CO)(CO)C(=O)Oc1ccc(/C=C/C(=O)/C=C(O)/C=C/c2ccc(OC(=O)C(CC)(CO)CO)c(OC)c2)cc1OC [Compound 22a]", "Condition met"),
    ("CC(CO)(CO)C(=O)Oc1ccc(/C=C/C(=O)CC(=O)/C=C/c2ccc(OC(=O)C(C)(CO)CO)c(OC(F)(F)F)c2)cc1OC(F)(F)F [Compound 28]", "Condition not met"),
    ("CCC(CC)(C(=O)/C=C/c1ccc(OC(=O)C(C)(CO)CO)c(OC)c1)C(=O)/C=C/c1ccc(OC(=O)C(C)(CO)CO)c(OC)c1 [Compound 35b]", "Condition met"),
]

Query :: # bool: pIC50 of COc1cc(/C=C/C(=O)/C=C(O)/C=C/c2ccc(O)c(OC)c2)ccc1O [Curcumin] >= 5
Result :: Condition not met

Query :: I'd appreciate it if you could say whether O=C(/C=C/c1ccc(O)cc1)CC(=O)/C=C/c1ccc(O)cc1 [Bisdemethoxycurcumin, bisdemethoxycurcumin, reference compound] has pIC50 at least equal to 5.
Result :: Condition not met

Query :: Check if pIC50 >= 5 (inclusive). Item: COc1ccc(/C=C/C(=O)C(C)(C)C(=O)/C=C/c2ccc(OC)c(OC(=O)C(C)(CO)CO)c2)cc1OC(=O)C(C)(CO)CO [Compound 37]
Result :: Condition met

Query :: Is it the case that COc1ccc(/C=C/C(=O)CC(=O)/C=C/c2ccc(OC)c(OC(=O)C(C)(CO)CO)c2)cc1OC(=O)C(C)(CO)CO [Compound 24a] has pIC50 reaching or exceeding 5?
Result :: Condition met

Query :: Determine whether measured pIC50 meets or exceeds 5 for COc1cc(/C=C/C(=O)C(CO)(CO)C(=O)/C=C/c2ccc(OC(=O)C(C)(CO)CO)c(OC)c2)ccc1OC(=O)C(C)(CO)CO [Compound 40]
Result :: Condition not met

Query :: Item COc1ccc(/C=C/C(=O)C(COC(C)=O)(COC(C)=O)C(=O)/C=C/c2ccc(OC)c(OC)c2)cc1OC [Compound 44] with pIC50 of 5 or above?
Result :: Condition met

Query :: Please tell me: is the molecule COc1cc(/C=C/C(=O)C(COC(C)=O)(COC(C)=O)C(=O)/C=C/c2ccc(OC(=O)C(C)(CO)CO)c(OC)c2)ccc1OC(=O)C(C)(CO)CO [Compound 41] at or over 5 in terms of pIC50?
Result :: Condition not met
